The measured values listed here are drawn from the supplement of paper PMC11208160.

methodDescription: recombinant UMI read abundance after kanamycin selection (control-corrected) (log10(CPM+1)); higher = more efficient recombination; extreme values may be limits of the assay; sequences stand for … in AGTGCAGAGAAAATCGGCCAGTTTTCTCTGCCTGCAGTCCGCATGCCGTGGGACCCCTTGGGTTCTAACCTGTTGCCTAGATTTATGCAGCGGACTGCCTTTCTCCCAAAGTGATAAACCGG…AGGTTGGTTTCACT; site = the 11-nt donor;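 note: IS621 bridge recombinase in Escherichia coli cells against a fixed T5 target plasmid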
propertyMeasured: recombinant UMI read abundance (log10)
Numbers only.

* ATCGAGTCATGGACCGGTTTTCCCGGTAATCCGTATTTGTA (site ATCGAGTCTTA) | 3.05
* GTTGGTCCATGGACCGGTTTTCCCGGTAATCCGTATTTGGT (site GTTGGTCCTAC) | 0.0121

Report recombinant UMI read abundance (log10) for every entry below.
1. TCGTTCTCATGGACCGGTTTTCCCGGTAATCCGTATTTGGG (site TCGTTCTCTCC)
2. CCGTTAGCATGGACCGGTTTTCCCGGTAATCCGTATTTGAG (site CCGTTAGCTCA)
3. CTGTAAACATGGACCGGTTTTCCCGGTAATCCGTATTTGCA (site CTGAAAACTTG)
4. TGTCTACCATGGACCGGTTTTCCCGGTAATCCGTATTTGCG (site TGTCTACCTCG)
5. AGGACTACATGGACCGGTTTTCCCGGTAATCCGTATTTGCC (site AGGACTACTGA)
6. TTCGCTGCATGGACCGGTTTTCCCGGTAATCCGTATTTGTA (site TTCGCTGCTTA)

output:
[0.00264, 0.0714, 0, 0.0129, 0, 0.369]

Report recombinant UMI read abundance (log10) for every entry below.
1. CGCGAACCATGGACCGGTTTTCCCGGTAATCCGTATTTGAT (site CGGGAACCTAT)
2. GCGCAGCCATGGACCGGTTTTCCCGGTAATCCGTATTTGGG (site GCGCAGCCTCC)
3. CTGTAAACATGGACCGGTTTTCCCGGTAATCCGTATTTGCA (site CTGCAAACTTG)
4. AATTATACATGGACCGGTTTTCCCGGTAATCCGTATTTGGA (site AATTATACTTC)
5. CGACTAACATGGACCGGTTTTCCCGGTAATCCGTATTTGGA (site CCACTAACTTC)
6. AGCAATCCATGGACCGGTTTTCCCGGTAATCCGTATTTGAA (site GGCAATCCTTT)
7. TGGCTAGCATGGACCGGTTTTCCCGGTAATCCGTATTTGAA (site TAGCTAGCTTT)
8. CGGCCGGCATGGACCGGTTTTCCCGGTAATCCGTATTTGGC (site AGGCCGGCTGC)

output:
[0, 0.00363, 0.604, 0.828, 0.226, 0.00676, 0.00919, 0]

Report recombinant UMI read abundance (log10) for every entry below.
1. CTGCTACCATGGACCGGTTTTCCCGGTAATCCGTATTTGCC (site CTGCTACCTCG)
2. ACCTTGACATGGACCGGTTTTCCCGGTAATCCGTATTTGGG (site ACCTGGACTCC)

output:
1: 0.00838; 2: 0.0127

----------
methodDescription: recombinant UMI read abundance after kanamycin selection (control-corrected) (log10(CPM+1)); higher = more efficient recombination; extreme values may be limits of the assay; sequences stand for … in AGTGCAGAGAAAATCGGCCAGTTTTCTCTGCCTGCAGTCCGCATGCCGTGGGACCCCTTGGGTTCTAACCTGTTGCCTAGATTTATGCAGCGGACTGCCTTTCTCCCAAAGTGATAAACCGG…AGGTTGGTTTCACT; site = the 11-nt donor
propertyMeasured: recombinant UMI read abundance (log10)
One number for each entry.

Worked set:
- GTCTAACCATGGACCGGTTTTCCCGGTAATCCGTATTTGTC (site GTCTAACCTGA): 0
- CGATCAACATGGACCGGTTTTCCCGGTAATCCGTATTTGCG (site CGATCATCTAG): 0
- AGTAGCACATGGACCGGTTTTCCCGGTAATCCGTATTTGAG (site AGTAGCACTCT): 1.24

Report recombinant UMI read abundance (log10) for every entry below.
1. CCCATCTCATGGACCGGTTTTCCCGGTAATCCGTATTTGTC (site CCCATTTCTGA)
2. CCCATACCATGGACCGGTTTTCCCGGTAATCCGTATTTGTG (site CCCATACCTCA)

output:
1. 0
2. 0.0125
